The entries below are paired with their reported IC50.
Tested on: Prostaglandin E2 receptor EP3 subtype (Mus musculus, UniProt P30557)
Protocol description: Antagonist activity at mouse EP3 receptor expressed in CHO cells assessed as inhibition of PGE2-induced increase intracellular calcium level in presence of 1% BSA by fluorimetry
Just the number please, in nM, no unit attached.

Compound: COc1cccc(C(CC(C)C)NC(=O)c2cc(COc3cccc(C#N)c3)ccc2CCC(=O)O)c1 (stereo not given)
IC50 [nM]: 3.2

Which IC50 value belongs to Cc1cc(C)cc(C(CC(C)C)NC(=O)c2cc(COc3ccc(F)c(F)c3)ccc2CCC(=O)O)c1 (stereo not given) ? 5.7

How about this compound: COc1ccc(C(CC(C)C)NC(=O)c2cc(COc3ccccc3)ccc2CCC(=O)O)cc1 (stereo not given) 59

How about this compound: Cc1ccc(C(CC(C)C)NC(=O)c2cc(COc3ccccc3)ccc2CCC(=O)O)cc1 (stereo not given) 51

How about this compound: COc1ccc(C(CC(C)C)NC(=O)c2cc(COc3cccc(C#N)c3)ccc2CCC(=O)O)cc1OC (stereo not given) 3.7

---

Protocol description: AUC in rat at 13 mg/kg, po
Type: ADME, organism-based
Set-up: dose 13 mg/kg, route oral
Measurement setup: plasma
Property: AUC (ng·h/mL)
Just the number please, in ng·h/mL, no unit attached.

Which AUC value belongs to Cc1cc(C)cc(C(CC(C)C)NC(=O)c2cc(COc3cccc(F)c3)ccc2CCC(=O)O)c1 (stereo unspecified) ? 1090

---

Protocol description: AUC in rat at […], iv
Format: ADME, organism-based
Set-up: dose 1.2 mg/kg, route intravenous
Measurement setup: plasma
Property: AUC
# output: numeric value plus its unit

Compound: Cc1cc(C)cc(C(CC(C)C)NC(=O)c2cc(COc3cccc(F)c3)ccc2CCC(=O)O)c1 (configuration not stated)
AUC: 440 ng·h/mL

Moving on to the next compound.
Which AUC value belongs to Cc1cc(C)cc(C(CC(C)C)NC(=O)c2cc(COc3cc(F)ccc3F)ccc2CCC(=O)O)c1 (configuration not stated) ? 470 ng·h/mL

---

Protocol description: Cmax in rat at 13 mg/kg, po
Type: ADME, organism-based
Set-up: dose 13 mg/kg, route oral
Measurement setup: in vivo
Property: Cmax
# output: numeric value plus its unit

Which Cmax value belongs to Cc1cc(C)cc(C(CC(C)C)NC(=O)c2cc(COc3cccc(F)c3)ccc2CCC(=O)O)c1 (stereo unspecified) ? 390 ng/mL

---

Tested on: Prostaglandin E2 receptor EP3 subtype (Mus musculus, UniProt P30557)
Sequence (P30557 whole entry): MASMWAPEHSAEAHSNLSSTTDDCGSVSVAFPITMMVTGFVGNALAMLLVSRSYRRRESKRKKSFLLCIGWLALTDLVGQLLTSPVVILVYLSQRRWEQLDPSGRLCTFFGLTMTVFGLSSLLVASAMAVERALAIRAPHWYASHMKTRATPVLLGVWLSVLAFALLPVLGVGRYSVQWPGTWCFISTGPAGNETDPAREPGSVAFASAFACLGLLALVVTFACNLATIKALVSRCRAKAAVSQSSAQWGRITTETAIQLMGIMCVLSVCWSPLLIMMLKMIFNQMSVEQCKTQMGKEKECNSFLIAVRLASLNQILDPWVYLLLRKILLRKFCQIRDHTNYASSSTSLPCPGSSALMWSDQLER
The entries below are paired with their reported Ki.
Just the number please, in nM, no unit attached.

Compound: Cc1cc(C)cc(C(CC(C)C)NC(=O)c2cc(COc3ccc(Cl)cc3)ccc2CCC(=O)O)c1 (centres undefined)
Unit string: nM
Recorded measurement: 0.62

Compound: Cc1cc(C)cc(C(CC(C)C)NC(=O)c2cc(COc3ccccc3F)ccc2CCC(=O)O)c1 (centres undefined)
Unit string: nM
Recorded measurement: 0.1

Compound: COc1cccc(C(CC(C)C)NC(=O)c2cc(COc3ccccc3)ccc2CCC(=O)O)c1 (centres undefined)
Unit string: nM
Recorded measurement: 0.13

Which Ki value belongs to CC(C)CC(NC(=O)c1cc(COc2cccc(C#N)c2)ccc1CCC(=O)O)c1ccc(F)cc1 (centres undefined) ? 0.17

How about this compound: COc1cccc(C(CC(C)C)NC(=O)c2cc(COc3cccc(C#N)c3)ccc2CCC(=O)O)c1 (centres undefined) 0.13

How about this compound: CC(C)CC(NC(=O)c1cc(COc2ccccc2)ccc1CCC(=O)O)c1cc(F)cc(F)c1 (centres undefined) 0.3

How about this compound: CC(C)CC(NC(=O)c1cc(COc2ccccc2)ccc1CCC(=O)O)c1cc(F)cc(C(F)(F)F)c1 (centres undefined) 0.45

How about this compound: COc1ccc(C(CC(C)C)NC(=O)c2cc(COc3ccccc3)ccc2CCC(=O)O)cc1C (centres undefined) 0.16

How about this compound: Cc1ccc(C(CC(C)C)NC(=O)c2cc(COc3ccccc3)ccc2CCC(=O)O)cc1C (centres undefined) 0.17
